System: MDA-MB-231 (breast cancer)
PROTOCOL_DETAILS: Antiproliferative activity (CCK-8 cell viability), MDA-MB-231
Assay type: cell-based
CONDITION_PARAMETERS: Homo sapiens, Compound concentration: 10 μM, 72 h, read-out: Antiproliferative activity in cancerous cells, MDA-MB-231 (inhibition of cell growth)
METRIC_NAME: inhibition at 10 µM

Past entries and their recorded results:
Documented inhibition at 10 µM of `CC1=C(CC(=O)O)c2cc(F)ccc2/C1=C\c1ccc(Oc2ccc(Cl)cc2C)cc1` : ≥ 50%

Documented inhibition at 10 µM of `CC1=C(CC(=O)O)c2cc(F)ccc2/C1=C\c1ccc(Oc2ccc(F)cc2Cl)cc1` : < 30%

State the recorded inhibition at 10 µM for every item in the following list.
1. CC1=C(CC(=O)O)c2cc(F)ccc2/C1=C\c1ccc(C2(c3ccccc3)SCCS2)cc1
2. CC1=C(CC(=O)O)c2cc(F)ccc2/C1=C\c1ccc(OC2CCC(F)(F)CC2)cc1
3. CCc1ccc2c(c1)C(CC(=O)O)=C(C)/C2=C/c1cccc(COc2ccc(F)cc2)c1
4. CC1=C(CC(=O)O)c2cc(F)ccc2/C1=C\c1ccc(Oc2ccc(F)c(Br)c2)cc1
5. CC1=C(CC(=O)O)c2cc(F)ccc2/C1=C\c1cccc(C(F)(F)c2ccccc2)c1

1. ≥ 50%
2. ≥ 50%
3. ≥ 50%
4. ≥ 50%
5. ≥ 50%
